The measurements presented in this section are drawn from ChEMBL document CHEMBL1221361.

As shown below, each of these molecules has a reported pIC50 value.
# TARGET: Sodium channel protein type 9 subunit alpha (Homo sapiens, UniProt Q15858)
# Sequence (Q15858 whole entry): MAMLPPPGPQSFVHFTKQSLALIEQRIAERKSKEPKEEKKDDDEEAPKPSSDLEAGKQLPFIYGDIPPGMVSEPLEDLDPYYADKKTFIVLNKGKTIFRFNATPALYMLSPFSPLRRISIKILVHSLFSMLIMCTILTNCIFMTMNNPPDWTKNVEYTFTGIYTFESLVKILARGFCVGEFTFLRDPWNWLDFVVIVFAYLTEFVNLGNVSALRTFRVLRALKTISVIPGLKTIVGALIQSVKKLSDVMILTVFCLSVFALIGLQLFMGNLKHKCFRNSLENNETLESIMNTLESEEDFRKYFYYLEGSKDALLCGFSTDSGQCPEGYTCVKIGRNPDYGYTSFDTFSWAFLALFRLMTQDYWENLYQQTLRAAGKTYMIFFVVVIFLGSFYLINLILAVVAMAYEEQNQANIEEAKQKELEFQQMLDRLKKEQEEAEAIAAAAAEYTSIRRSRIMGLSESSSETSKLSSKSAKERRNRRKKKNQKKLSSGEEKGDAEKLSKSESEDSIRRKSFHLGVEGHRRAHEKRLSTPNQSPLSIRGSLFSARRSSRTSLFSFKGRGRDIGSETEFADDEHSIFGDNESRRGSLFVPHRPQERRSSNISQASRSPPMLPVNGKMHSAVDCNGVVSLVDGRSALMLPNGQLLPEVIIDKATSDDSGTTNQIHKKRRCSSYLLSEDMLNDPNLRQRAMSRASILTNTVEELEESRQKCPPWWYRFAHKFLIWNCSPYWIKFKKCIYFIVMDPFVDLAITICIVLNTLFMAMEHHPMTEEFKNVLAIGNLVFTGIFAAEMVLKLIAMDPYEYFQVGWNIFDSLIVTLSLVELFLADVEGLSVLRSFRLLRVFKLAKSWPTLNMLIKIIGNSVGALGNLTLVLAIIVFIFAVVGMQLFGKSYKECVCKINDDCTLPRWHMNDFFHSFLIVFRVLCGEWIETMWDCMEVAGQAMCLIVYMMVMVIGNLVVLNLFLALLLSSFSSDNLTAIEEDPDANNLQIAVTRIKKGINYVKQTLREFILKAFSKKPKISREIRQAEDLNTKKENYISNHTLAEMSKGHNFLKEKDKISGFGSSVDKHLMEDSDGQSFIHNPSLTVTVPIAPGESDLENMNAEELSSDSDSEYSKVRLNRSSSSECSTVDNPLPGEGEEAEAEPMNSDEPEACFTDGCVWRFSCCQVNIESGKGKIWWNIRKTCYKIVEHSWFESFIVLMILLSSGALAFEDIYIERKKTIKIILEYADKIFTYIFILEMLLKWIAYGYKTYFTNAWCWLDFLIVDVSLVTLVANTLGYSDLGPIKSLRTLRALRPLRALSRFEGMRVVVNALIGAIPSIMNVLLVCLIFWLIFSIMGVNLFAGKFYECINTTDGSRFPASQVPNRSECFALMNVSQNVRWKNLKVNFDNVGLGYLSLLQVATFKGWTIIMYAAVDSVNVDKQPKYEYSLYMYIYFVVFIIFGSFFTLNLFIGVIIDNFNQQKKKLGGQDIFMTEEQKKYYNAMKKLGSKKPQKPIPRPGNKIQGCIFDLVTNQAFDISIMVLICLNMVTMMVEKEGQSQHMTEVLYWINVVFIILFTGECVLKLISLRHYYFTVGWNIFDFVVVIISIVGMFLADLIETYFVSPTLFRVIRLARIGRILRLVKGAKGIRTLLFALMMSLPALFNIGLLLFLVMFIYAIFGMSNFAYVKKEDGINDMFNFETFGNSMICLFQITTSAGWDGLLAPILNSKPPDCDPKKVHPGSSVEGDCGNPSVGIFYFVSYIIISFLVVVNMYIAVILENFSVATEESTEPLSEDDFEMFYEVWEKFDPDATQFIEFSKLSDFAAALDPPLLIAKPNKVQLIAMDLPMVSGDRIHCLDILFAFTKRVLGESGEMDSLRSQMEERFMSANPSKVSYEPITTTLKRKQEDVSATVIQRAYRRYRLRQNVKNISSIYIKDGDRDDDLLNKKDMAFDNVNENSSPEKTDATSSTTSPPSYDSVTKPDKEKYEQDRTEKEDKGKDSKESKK
# TEST DETAILS: Blockade of human Nav1.7 by voltage ion probe reader based FRET assay
Please keep in mind that pIC50 is minus log10 of the molar concentration; only the number is needed.

FC(F)(F)Oc1ccccc1-c1cccc(-c2csc(-c3ncc[nH]3)n2)c1
6.02

Please look up its pIC50: NC(=O)Cc1nc(-c2cccc(-c3ccccc3OC(F)(F)F)c2)cs1
6.21

Please look up its pIC50: Cn1cc(-c2cccc(-c3ccccc3C(F)(F)F)c2)nc1C(N)=O
5.90

Please look up its pIC50: Cc1nc(-c2cccc(-c3ccccc3OC(F)(F)F)c2)co1
5.67

Please look up its pIC50: Cc1nc(-c2cccc(-c3ccccc3OC(F)(F)F)c2)cs1
5.52

---

As shown below, each of these compounds has a reported IC50 value.
# TARGET: Sodium channel protein type 9 subunit alpha (Homo sapiens)
# TEST DETAILS: Blockade of human Nav1.7 by electrophysiology assay
The response must be a number in µM with no trailing unit.

Previously resolved entries follow.
NC(=O)c1nc(-c2cccc(-c3ccccc3OC(F)(F)F)c2)cs1
0.015
FC(F)(F)c1ccccc1-c1cccc(-c2c[nH]cn2)c1
0.15
NC(=O)c1csc(-c2cccc(-c3ccccc3OC(F)(F)F)c2)n1
0.05

Please look up its IC50: NC(=O)c1nc(-c2cccc(-c3ccccc3C(F)(F)F)c2)c[nH]1
0.27

---

# TEST DETAILS: Metabolic stability in human liver S9 microsomes assessed as compound remaining after 1 hr
# Format: ADME, Microsome
# TEST CONDITIONS: read-out: INH
VALUE TYPE: remaining at 1 h (%)
The response must be a number in % with no trailing unit.

Please look up its remaining at 1 h: NC(=O)c1nc(-c2cccc(-c3ccccc3OC(F)(F)F)c2)cs1
47

---

# TARGET: Sodium channel protein type 9 subunit alpha (Homo sapiens)
# TEST DETAILS: Blockade of human Nav1.7 by voltage ion probe reader based FRET assay
So basically, if IC50 comes in under 1000 nM it's fulfilled, and if it's 1000 nM or more it's not fulfilled.

Cn1cc(-c2ccc(F)c(-c3ccccc3OC(F)(F)F)c2)nc1C(N)=O
fulfilled

Item FC(F)(F)Oc1ccccc1-c1cccc(-c2cscn2)c1 : IC50 beneath 1000 nM, strictly?
not fulfilled

Item NC(=O)c1nc(-c2cccc(-c3ccccc3OC(F)(F)F)c2)co1 : IC50 beneath 1000 nM, strictly?
not fulfilled

Item NC(=O)c1csc(-c2cccc(-c3ccccc3OC(F)(F)F)c2)n1 : IC50 beneath 1000 nM, strictly?
fulfilled

Item NC(=O)c1nc(-c2cccc(-c3ccccc3C(F)(F)F)c2)c(Cl)[nH]1 : IC50 beneath 1000 nM, strictly?
not fulfilled

Item FC(F)(F)Oc1ccccc1-c1cccc(-c2csc(-c3cnccn3)n2)c1 : IC50 beneath 1000 nM, strictly?
not fulfilled

---

# TEST DETAILS: Metabolic stability in dog liver S9 microsomes assessed as compound remaining after 1 hr
# Type: ADME, Canis lupus familiaris, Microsome
# TEST CONDITIONS: read-out: INH
VALUE TYPE: remaining at 1 h (%)
The response must be a number in % with no trailing unit.

Please look up its remaining at 1 h: NC(=O)c1nc(-c2cccc(-c3ccccc3OC(F)(F)F)c2)cs1
10
